# TARGET_DESC: LNX1_2, Q8TBB1
# Sequence (Q8TBB1 371-470): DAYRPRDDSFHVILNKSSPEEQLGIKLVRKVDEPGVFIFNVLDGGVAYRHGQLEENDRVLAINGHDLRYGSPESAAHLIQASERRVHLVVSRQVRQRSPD
# TEST_NAME: holdup assay
# Set-up: key: below the threshold = too weak to quantify, mostly under pKd 3.1 to 4
# SETTINGS: plain residues with an end cap or a label only (N-terminal biotin on a linker: ttds)
PARAMETER: pKd

FVETQHQTQV [FAT3, Q8TDW7] ... below the threshold
PPRQRSETQV [HPV82-E6, Q9IR59] ... below the threshold
SGGKRKETLV [NET1, Q7Z628] ... 3.62
DLDEEEDTHL [PODXL, O00592] ... below the threshold
PSRDRKETSI [RALBP1, Q15311] ... below the threshold
NPDALPETLV [ARHGAP6, O43182] ... 3.73
SRSRRRETAL [HPV33-E6, P06427] ... below the threshold
GRLLGLETNV [ARHGEF26, Q96DR7] ... below the threshold
